Taken from paper PMC9482650.

Readings of pKd for the listed binders
target: MAGI2_6, Q86UL8; experiment: holdup assay; design: key: below the threshold = too weak to quantify, mostly under pKd 3.1 to 4; details: plain residues with an end cap or a label only (N-terminal biotin on a linker: ttds)
Sequence (Q86UL8 1141-1229): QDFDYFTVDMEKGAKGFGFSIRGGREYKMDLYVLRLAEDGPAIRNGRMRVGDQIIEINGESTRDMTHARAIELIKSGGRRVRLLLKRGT
In your answer, state the number alone without any accompanying words.

Solved cases below.
> print(dat)
                            binder  quantitative.result
1  SEKHFRETEV [HTLV1-TAX1, P03409]                 4.43
2        LDSQIQETSI [MAP4, P27816]                 4.05
3         VNKVWDQSSV [CIT, O14578]                 3.57

For the next question, use this binder.
Suppose we examine the binder LCALPKVTTV [AGMAT, Q9BSE5] ; what pKd value has been reported?
4.64
